Assay: chemical genetic growth profiling, strain panel (AID 1159580);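 further: tested at 20 µM; growth read once vehicle control cultures reached saturation at 30 °C; lower values mean less growth of the strain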
Conditions: S. cerevisiae deletion strains, growth OD, locus YNL222W, strain SSU72
Screen size: about 5,500 compounds; about 2,000 (36%) were called active. About 18% were inconclusive and are not listed. No stated cut-off is given here; in the data, active means normalized growth mostly below about 0.91 (no sharp cut-off); inconclusive means no clear call, values can overlap the other calls; inactive means mostly above about 0.92. This is one part of the list.
The categories you may choose from are active, inactive

CC(NC(=S)Nc1ccc(Oc2ccc(Cl)cc2)cc1)c1ccccc1 (stereo not drawn) | inactive

Query block: For "O=C(NCc1ccc(F)c(Cl)c1)Nc1csc([N+](=O)[O-])c1" , which call appears in the assay record?
Result block: inactive

Query block: For "Cc1c(NCN2C(=O)CCC2=O)cc2c(c1[N+](=O)[O-])C(C)(C)CC2(C)C" , which call appears in the assay record?
Result block: inactive

Query block: For "N#CC(C#N)=NNc1ccc(-n2ccc(C(F)(F)F)n2)cc1" , which call appears in the assay record?
Result block: active

Query block: For "COc1ccc(-c2cc(NS(=O)(=O)c3cccc(F)c3)n(-c3ccc(Cl)c(Cl)c3)n2)cc1" , which call appears in the assay record?
Result block: inactive

Query block: For "O=C(Nc1ccc(Cl)cc1)c1csc([N+](=O)[O-])c1" , which call appears in the assay record?
Result block: inactive
